# Test: in vitro
# Type: in vitro ADME
# Experimental conditions: human, pH 7.4, human liver microsomes; ritonavir 0.4 micromolar; read-out: Percent Inhibition of Metabolism by Ritonavir
Measured metric: inhibition at 1 μM (%)
Your answer is read as %, so omit the unit and give the number.

Field request: inhibition at 1 μM | item: CCC[C@H](NC(=O)[C@@H]1[C@H]2CCC[C@H]2CN1C(=O)[C@@H](NC(=O)[C@@H](NC(=O)c1cnccn1)C1CCCCC1)C(C)(C)C)C(=O)C(=O)NC1CC1 [VX-950]
72

====

# Test: Pharmacokinetics of SCH 503034 in rats, with or without coadministered ritonavir
# Format: in vivo, Sprague-Dawley derived rats
# Experimental conditions: Sprague-Dawley, plasma; rat; IV 5 mg/kg; mean, n=3
Measured metric: half-life (min)
Lab book: enter the figure in min, no units written.

Endpoint output: half-life of CC(C)(C)NC(=O)N[C@H](C(=O)N1C[C@H]2[C@@H]([C@H]1C(=O)NC(CC1CCC1)C(=O)C(N)=O)C2(C)C)C(C)(C)C (stereo partly shown) . Value?
18

====

# Test: Pharmacokinetics of SCH 503034 in rats, with or without coadministered ritonavir
# Type: in vivo, Sprague-Dawley derived rats
# Experimental conditions: Sprague-Dawley, rat, plasma, po, 5 mg/kg, PO 5 mg/kg, no ritonavir, mean (SEM), n=3
Measured metric: Cmax (ng/mL)
// note: answer is a bare numeric in ng/mL

Recorded Cmax for CC(C)(C)NC(=O)N[C@H](C(=O)N1C[C@H]2[C@@H]([C@H]1C(=O)NC(CC1CCC1)C(=O)C(N)=O)C2(C)C)C(C)(C)C (stereo partly shown) [SCH 503034] , please?
70

====

# Test: in vivo
# Experimental conditions: Sprague-Dawley, rat, po, 5 mg/kg
Measured metric: AUC (µg·h/mL)
Give a bare numeral; the unit µg·h/mL is implied.

Find the recorded AUC belonging to `CCC[C@H](NC(=O)[C@@H]1[C@H]2CCC[C@H]2CN1C(=O)[C@@H](NC(=O)[C@@H](NC(=O)c1cnccn1)C1CCCCC1)C(C)(C)C)C(=O)C(=O)NC1CC1` and report it.
1.05

====

# Test: Pharmacokinetics of VX-950 in rats, with or without coadministered ritonavir
# Experimental conditions: Sprague-Dawley, rat, plasma, po, 5 mg/kg
Measured metric: half-life (h)
Respond with the bare value in h.

Which half-life is listed for CCC[C@H](NC(=O)[C@@H]1[C@H]2CCC[C@H]2CN1C(=O)[C@@H](NC(=O)[C@@H](NC(=O)c1cnccn1)C1CCCCC1)C(C)(C)C)C(=O)C(=O)NC1CC1 [VX-950] ?
1.7

====

# Test: in vitro
# Assay type: in vitro ADME
# Experimental conditions: human, pH 7.4, human liver microsomes; ritonavir 4.0 micromolar; read-out: Percent Inhibition of Metabolism by Ritonavir
Measured metric: inhibition at 1 μM (%)
Write the number in % without appending the unit.

Field request: inhibition at 1 μM | item: CCC[C@H](NC(=O)[C@@H]1[C@H]2CCC[C@H]2CN1C(=O)[C@@H](NC(=O)[C@@H](NC(=O)c1cnccn1)C1CCCCC1)C(C)(C)C)C(=O)C(=O)NC1CC1 [VX-950]
100

====

# Test: Pharmacokinetics of SCH 503034 in rats, with or without coadministered ritonavir
# Type: in vivo, Sprague-Dawley derived rats
# Experimental conditions: Sprague-Dawley, plasma; rat; PO+ = 5 mg/kg oral SCH 503034 + 5 mg/kg oral ritonavir; mean, n=3
Measured metric: half-life (h)
Respond numerically; units are h and should not be typed.

Sample CC(C)(C)NC(=O)N[C@H](C(=O)N1C[C@H]2[C@@H]([C@H]1C(=O)NC(CC1CCC1)C(=O)C(N)=O)C2(C)C)C(C)(C)C (stereo partly shown) — what was its half-life?
2.5

====

# Test: in vivo
# Experimental conditions: Sprague-Dawley, rat, po, 5 mg/kg, Tmax
Measured metric: Tmax (h)
Answer in h, number only, no unit symbol.

Tmax for `CCC[C@H](NC(=O)[C@@H]1[C@H]2CCC[C@H]2CN1C(=O)[C@@H](NC(=O)[C@@H](NC(=O)c1cnccn1)C1CCCCC1)C(C)(C)C)C(=O)C(=O)NC1CC1` ?
1.1

====

# Test: Pharmacokinetics of VX-950 in rats, with or without coadministered ritonavir
# Experimental conditions: Sprague-Dawley, rat, plasma, iv, 5 mg/kg
Measured metric: half-life (h)
Return type: number; implicit unit h.

// returns reported half-life for input CCC[C@H](NC(=O)[C@@H]1[C@H]2CCC[C@H]2CN1C(=O)[C@@H](NC(=O)[C@@H](NC(=O)c1cnccn1)C1CCCCC1)C(C)(C)C)C(=O)C(=O)NC1CC1 [VX-950]
2.8

====

# Test: Pharmacokinetics of SCH 503034 in rats, with or without coadministered ritonavir
# Assay type: in vivo, Sprague-Dawley derived rats
# Experimental conditions: Sprague-Dawley, rat, plasma, po, 5 mg/kg, PO+ = 5 mg/kg oral SCH 503034 + 5 mg/kg oral ritonavir, mean (SEM), n=3
Measured metric: Cmax (ng/mL)
Supply the numeric figure in ng/mL, leaving out any unit text.

Value lookup for Cmax; key = CC(C)(C)NC(=O)N[C@H](C(=O)N1C[C@H]2[C@@H]([C@H]1C(=O)NC(CC1CCC1)C(=O)C(N)=O)C2(C)C)C(C)(C)C (stereo partly shown)
520

====

# Test: in vitro
# Type: in vitro ADME
# Experimental conditions: rat, pH 7.4, rat liver microsomes; ritonavir 4.0 micromolar; read-out: Percent Inhibition of Metabolism by Ritonavir
Measured metric: inhibition at 30 min, 1 μM (%)
Kindly provide the numeric value in % only, without the unit symbol.

Sample CCC[C@H](NC(=O)[C@@H]1[C@H]2CCC[C@H]2CN1C(=O)[C@@H](NC(=O)[C@@H](NC(=O)c1cnccn1)C1CCCCC1)C(C)(C)C)C(=O)C(=O)NC1CC1 [VX-950] — what was its inhibition at 30 min, 1 μM?
100

====

# Test: Pharmacokinetics of SCH 503034 in rats, with or without coadministered ritonavir
# Assay type: in vivo, Sprague-Dawley derived rats
# Experimental conditions: Sprague-Dawley, plasma; rat; PO 5 mg/kg, no ritonavir; mean (SEM), n=3
Measured metric: AUC (ng·h/mL)
Report the figure in ng·h/mL without appending any unit label.

Quick check: AUC of CC(C)(C)NC(=O)N[C@H](C(=O)N1C[C@H]2[C@@H]([C@H]1C(=O)NC(CC1CCC1)C(=O)C(N)=O)C2(C)C)C(C)(C)C (stereo partly shown) ?
110

====

# Test: Pharmacokinetics of SCH 503034 in rats, with or without coadministered ritonavir
# Format: in vivo, Sprague-Dawley derived rats
# Experimental conditions: Sprague-Dawley, plasma; rat; IV 5 mg/kg; mean (SEM), n=3; read-out: CLp (converted)
Measured metric: clearance (mL/min/kg)
Numbers only; they are read as mL/min/kg.

State the recorded clearance for this entry: CC(C)(C)NC(=O)N[C@H](C(=O)N1C[C@H]2[C@@H]([C@H]1C(=O)NC(CC1CCC1)C(=O)C(N)=O)C2(C)C)C(C)(C)C (stereo partly shown)
34

====

# Test: in vitro
# Type: in vitro ADME
# Experimental conditions: human, pH 7.4, human liver microsomes; ritonavir 0 micromolar; read-out: Percent Inhibition of Metabolism by Ritonavir
Measured metric: inhibition at 1 μM

Please give the measured inhibition at 1 μM for this compound: CCC[C@H](NC(=O)[C@@H]1[C@H]2CCC[C@H]2CN1C(=O)[C@@H](NC(=O)[C@@H](NC(=O)c1cnccn1)C1CCCCC1)C(C)(C)C)C(=O)C(=O)NC1CC1 [VX-950]
0%

====

# Test: Pharmacokinetics of SCH 503034 in rats, with or without coadministered ritonavir
# Format: in vivo, Sprague-Dawley derived rats
# Experimental conditions: Sprague-Dawley, plasma; rat; IV 5 mg/kg; mean (SEM), n=3; read-out: Vss
Measured metric: Vd (L/kg)
The figure you give is taken to be in L/kg; do not add the unit.

Field request: Vd | item: CC(C)(C)NC(=O)N[C@H](C(=O)N1C[C@H]2[C@@H]([C@H]1C(=O)NC(CC1CCC1)C(=O)C(N)=O)C2(C)C)C(C)(C)C (stereo partly shown)
0.53

====

# Test: in vivo
# Experimental conditions: Sprague-Dawley, rat, iv, 5 mg/kg
Measured metric: AUC (ng·h/mL)
Numeric only. Scale: ng·h/mL

For the compound shown here, CCC[C@H](NC(=O)[C@@H]1[C@H]2CCC[C@H]2CN1C(=O)[C@@H](NC(=O)[C@@H](NC(=O)c1cnccn1)C1CCCCC1)C(C)(C)C)C(=O)C(=O)NC1CC1 [VX-950] , give the reported AUC.
3030
